system: HT-29; assay: NCI tumour cell line growth inhibition, 48 h
Active and inactive are the calls of the source. Cut-off read from the data, not from the text of the source: active = GI50 up to about 1.1 µM and inactive = higher.
Return exactly one item of Yes = active, No = inactive

compound	label
CC1C(O)[C@@]2(OC[C@@]34C(=O)CC5(O)[C@H](CCC6Cc7nc8c(nc7C[C@]65C)CC5CC[C@@H]6C7=C[C@H]9O[C@@]%10(O[C@@](C)(CO)C[C@@H]%10O)C(C)[C@@]9(O)[C@]7(C)[C@@H](O)CC6[C@]5(C)C8)C3=CC[C@H]4C2C)OC1(C)C (some centres not stated)	Yes
CCOC(=O)[C@@]12C3C=CC(CC3)[C@]1(C(=O)c1ccccc1)C(=O)C(=O)N2c1ccccc1 (some centres not stated)	No
CCCCN/C(=N\C#N)N(Cc1ccccc1)Cc1ccccc1	No
CC1(c2cccc(C3CC4(CCC3=O)OCCCCO4)c2)OCCO1 (configuration not stated)	No
Cn1cc(C(=O)c2ccccc2)c2ccccc2c1=O	No

So what was the verdict on `Cc1ccc(S(=O)(=O)N/N=C(/CC(=O)c2c(C)[n+]([O-])c3ccccc3[n+]2[O-])C(=O)Nc2ccc(C)c(C)c2)cc1` in this test?
No

For C=C1C(=O)C23CC1CCC2C12CO[C@H](O)[C@H]1C(C)(C)[C@H](OC(C)=O)C[C@H]2OC3=O (some centres not stated) , which call appears in the assay record?
No

Please state the recorded outcome for this compound: O=C1OC(c2ccccc2)=N/C1=C/N1CCCC1C(=O)O (configuration not stated)
No

Answer briefly: the call reported for `O=c1cc(-c2ccccc2)oc2cc(Oc3nnnn3-c3ccccc3)ccc12` in this assay.
No

---

test system: MDA-N; assay: NCI tumour cell line growth inhibition, 48 h
The source made the active and inactive calls. Cut-off read from the data, not from the text of the source: active = GI50 up to about 1.1 µM and inactive = higher.
Returns: one label drawn from active, inactive

Previously resolved entries follow.
> print(dat)
                                   compound  system     label
1  CCn1c2nc(=O)n(CCCCCCCCSC(c3ccccc3)(c3ccccc3)c3ccccc3)c(=O)c-2nc2ccccc21   MDA-N  inactive
2       OC[C@H]1NC[C@@H](O)[C@@H](O)[C@H]1O   MDA-N  inactive
3               CCOC(=O)Nc1sc2c(c1C#N)CCCC2   MDA-N  inactive
4       O=C1COc2ccc([N+](=O)[O-])cc2C(=O)C1   MDA-N  inactive
5  CC(=O)OC[C@H]1CN(OC(C)=O)C[C@@H](n2cc(C)c(=O)[nH]c2=O)O1   MDA-N  inactive

// param item: `O=C1/C(=C\c2ccc(Cl)cc2Cl)Sc2scc(-c3cccc([N+](=O)[O-])c3)[n+]21` ; yields the recorded call
inactive

Returns: the outcome recorded for CCCCCCCCCCCCCCCC(=O)OC(COC(C)=O)CO[PH](=O)O (configuration not stated) in this assay.
inactive

Call for entry `CSc1nc(C)cc(Nc2ccc(O)c(CN3CCOCC3)c2)n1` :
inactive

Test call, this compound: `COc1ccc2nccc(/C=C/c3ccc(N(C)C)cc3)c2c1`
inactive

Please indicate how the test categorized OC1c2ccccc2CCC1CN1CCN(CCOC(c2ccc(F)cc2)c2ccc(F)cc2)CC1 (configuration not stated) .
inactive

Which outcome was assigned to `Cc1ccc2c(O)cc(-c3csc4ccccc34)nc2n1` in this test?
active

Per the records of this test, what outcome belongs to C[n+]1c2ccccc2c(CNC(CCC(N)=O)C(=O)O)c2ccccc21 (configuration not stated) ?
inactive

Identify the outcome logged in this assay for the compound shown: `O=C(CNc1ccc([N+](=O)[O-])cc1)Nn1c(-c2ccccc2)nc2ccccc2c1=O`
inactive

Could you check what this test reported for Cc1ccc(S(=O)(=O)NC2C(=O)c3ccccc3C(=O)C2n2cnc3ccccc32)cc1 (configuration not stated) ?
inactive

Test call, this compound: CSCCC(NC(c1ccccc1)c1ccccc1)[PH](=O)O (configuration not stated)
inactive

// return assay outcome for Clc1cccc(N2CCN(CCN3CCc4c([nH]c5ccccc45)C3c3cccnc3)CC2)c1 (configuration not stated)
inactive

Recorded test call requested for `COc1cc(C)c(/C=C2/N=C(c3ccccc3)OC2=O)c([N+](=O)[O-])c1OC`
inactive

---

tested on: OVCAR-8; assay: NCI tumour cell line growth inhibition, 48 h
Activity calls are given as the source filed them. Rule as the data show it: active = GI50 up to about 1.1 µM and inactive = higher.
measurement label: GI50

Below, 3 compounds whose answers are already recorded.
> print(dat)
                                   compound   system             measured
1      Cc1cccc(/N=N/C(=O)NNc2cccc(C)c2C)c1C  OVCAR-8   33.3 µM (inactive)
2  O=c1oc2c3ccc4ccccc4c3n(CCCN3CCCCC3)c2c2ccccc12  OVCAR-8   32.7 µM (inactive)
3       CCOC(=O)/C(=C\NC#N)c1nc2ccccc2[nH]1  OVCAR-8  > 100 µM (inactive)

Turning to the following compound.
# compound OCC(O)COc1c(Cl)cc(Cl)cc1Cl (configuration not stated) ; its GI50 = > 100 µM (inactive)

---

test system: HOP-62; assay: NCI tumour cell line growth inhibition, 48 h
Calls of active or inactive are those of the source. Cut-off read from the data, not from the text of the source: active = GI50 up to about 1.1 µM and inactive = higher.
measurement label: GI50

> print(dat)
                                   compound  system             measured
1  Nc1nc2c(c(=O)[nH]1)C(c1ccccc1)CC(=O)N2 (centres undefined)  HOP-62  > 100 µM (inactive)
2  Cc1ccc(S(=O)(=O)NC(=O)NC(Cc2ccc(O)cc2)C(=O)O)cc1 (centres undefined)  HOP-62  > 100 µM (inactive)
3  CCOC(=O)C1([Se]c2ccccc2)CCCC1=O (centres undefined)  HOP-62   96.8 µM (inactive)
4  C#CCCOC(=O)CC1=C(C)/C(=C/c2ccc([S+](C)[O-])cc2)c2ccc(F)cc21 (centres undefined)  HOP-62   27.2 µM (inactive)
5  NCCCCC(N)C(=O)NCCNc1ccc(NCCNC(=O)C(N)CCCCN)c2c1C(=O)c1ccccc1C2=O (centres undefined)  HOP-62   9.46 µM (inactive)
6      COc1cccc(/C=C2\N=C(c3ccccc3)OC2=O)c1  HOP-62   61.1 µM (inactive)

Now consider the entry below.
Sure, the documented GI50 for `Cc1ccc(NC(=O)c2cc(S(=O)(=O)Nc3n[nH]c(=O)[nH]3)c(SSc3cc(Cl)c(C(=O)Nc4ccc(C)cc4)cc3S(=O)(=O)Nc3n[nH]c(=O)[nH]3)cc2Cl)cc1` is > 100 µM (inactive)

---

Catalogue of GI50 values
test system: ACHN; assay: NCI tumour cell line growth inhibition, 48 h
Calls of active or inactive are those of the source. No stated cut-off is given here; in the data, active = GI50 up to about 1.1 µM and inactive = higher.

A selection of reference data follows.
> print(dat)
                                   compound             measured
1  C[C@H]1C[C@@H]2[C@H]([C@@H](O)C[C@@]3(C)[C@H]2CC[C@]3(O)C(=O)CO)[C@@]2(C)C=CC(=O)C=C12  > 100 µM (inactive)
2  COc1cc(O)c2c(c1)OCC1(Cc3cc(OC)c(OC)cc31)C2=O (centres undefined)  > 100 µM (inactive)
3      Cc1c2cccc-2c(OCCO)cc2c3ccccc3n(C)c12   5.12 µM (inactive)

Measured on ACHN, COC(NC(N)=O)C(=O)O (centres undefined) has a documented GI50 of > 100 µM (inactive)

---

system: SNB-19; test: NCI tumour cell line growth inhibition, 48 h
The source made the active and inactive calls. Rule as the data show it: active = GI50 up to about 1.1 µM and inactive = higher.
measurement label: GI50

Here's what some known entries look like.
> print(dat)
                                   molecule             measured
1  CC(C)(C)NC(=O)N1N=C(c2ccccc2)C1c1ccccc1 (centres undefined)   34.3 µM (inactive)
2  OCC1OC(c2ccccc2)CC1O (centres undefined)  > 100 µM (inactive)
3  O=C(c1ccccc1)N1C(=O)N(c2ccccc2)C(=N/c2ccccc2)/C1=N\c1ccccc1  > 100 µM (inactive)
4    OC(c1ccc(Cl)cc1)(c1ccc(Cl)cc1)c1cncnc1   22.5 µM (inactive)
5  O=C1NC2c3c(I)sc(I)c3C(=O)C2O1 (centres undefined)   13.2 µM (inactive)
6        CCOP(=O)(OCC)/C(=C/c1cccs1)CC(C)=O  > 100 µM (inactive)
7  CN(C)CC1CCC(CN(C)C)C1=O (centres undefined)  > 100 µM (inactive)
8  COc1ccc(C2C(=O)c3c(OC)cc(OC)cc3OC2c2cccnc2)cc1 (centres undefined)  > 100 µM (inactive)

In the following, a different molecule is considered.
Looking up CCSCC(N)C(=O)O (centres undefined) , I see its GI50 listed as > 100 µM (inactive)

---

test system: MOLT-4; experiment: NCI tumour cell line growth inhibition, 48 h
Active and inactive are the calls of the source. Rule as the data show it: active = GI50 up to about 1.1 µM and inactive = higher. Non-standard residues stand in square brackets, D forms with d. Residues, ends and D or L forms follow the SMILES beside them. ξ: configuration not given here. *: point of attachment. X18 = COC1=CC(=O)N(C(=O)C(O*)C(C)C)C1Cc1ccccc1; ξNMe2Val = CC(C)C(C(=O)*)N(C)C; NMeV = CN[CH](C(=O)O)C(C)C
Use one of these outcomes when replying: TRUE for active, FALSE for inactive

Check out these entries, answers already filled in.
molecule	label
COc1ccc(/N=C2\C(=S)N(c3ccc(OC)cc3)/C(=N/S(=O)(=O)c3ccccc3)N2c2ccccc2)cc1	TRUE
CC(C)CN(CC#N)CC(C)C	FALSE
CC1(C)CCCC2(C)C3C(O)CC2(C)C(O)C31 (stereo not given)	FALSE
COC(=O)C(CC(=O)c1c[nH]c2ccccc12)c1c[nH]c2ccccc12 (stereo not given)	FALSE
CN(c1n[n+]2c(-c3ccccc3)csc2s1)c1n[n+]2c(-c3ccccc3)csc2s1	FALSE
COC1=CC(=O)N(C(=O)C(OC(=O)C2CCCN2C(=O)C2CCCN2C(=O)C(C(C)C)N(C)C(=O)C(NC(=O)C(C(C)C)N(C)C)C(C)C)C(C)C)C1Cc1ccccc1 (stereo not given) (ξNMe2Val-V[NMeV]PP-X18; configuration not given here)	TRUE

Recorded test call requested for `Cc1cccc(/N=N/C(=O)NNc2cccc(C)c2C)c1C`
FALSE

Outcome logged for `Cc1c2cccc-2c(OCCO)cc2c3ccccc3n(C)c12` in this assay:
FALSE

Returns: the outcome recorded for Cc1ccc(CC2(OCCN(C)C)CCC(C(C)(C)C)CC2)cc1 (stereo not given) in this assay.
FALSE

Write down the call the test reported for this molecule. Item: CN(C(=S)Cc1ccc(Cl)c(Cl)c1)C1CCCC[C@@H]1N1CCCC1 (stereo not given in full)
FALSE
